# measured target: T1, SARS-CoV-2 spike receptor binding domain (RBD) (SARS-CoV-2, UniProt P0DTC2 319-541)
# T1 construct: also called SARS-CoV RBD
# procedure details: RBD/ACE2 competition; RBD binding to ACE2 on HEK-293 cells
observed property: ACE2 Inhibition (%)

INSERT INTO assay_data (binder, observed_property, result) VALUES
  ('11G2_f3 (antibody, V domains shown, also called SARS2-11G2_S; antibody number 13) VH: QVQLVQSGAEVKKPGASVKVSCKASGYTFTSYDITWVRQATGQGLEWMGWMSPNSGNTGYAQKFQGRVSMTRNTSISTAYMELSSLRSEDTAVYYCARFGYGSGALDYYYYGLDVWGQGTTVTVSS VL: EIVLTQSPGTLSLSPGERATLSCRASQSVRNSHLAWYQQKPGQAPRLLIYGASSRATGIPDRFSGSGSGTDFTLTISRLEPEDFAVYYCQQFGSSPITFGQGTRLEIK', 'ACE2 Inhibition (%)', '90%'),
  ('SARS2-17F2_f3 (antibody, V domains shown, also called antibody number 18) VH: QVQLVQSGAEVKRPGASVKVSCKASGYTFTSYDITWVRQATGQGLEWMGWMSPDSGNTGYAQRFQGRVTMTRNTSISTAYMELSSLRSEDTAVYYCARFGYGSGALDYYYYGLDVWGQGTTVTVSS VL: EIVLTQSPGTLSLSPGERATLSCRASQSVRSSHLAWYQQKPGQAPRLLIYGASSRATGIPDRFSGSGSGTDFTLTISRLEPEDFAVYYCQQYNSSPITFGQGTRLEIK', 'ACE2 Inhibition (%)', '65%');
